These entries and their values trace back to ChEMBL document CHEMBL5365548.

Assay: Microsomal stability in rat liver microsome assessed as half life measured upto 60 mins by LC-MS/MS analysis
Type: ADME
Settings: liver microsomes
measure: half-life

Quick note, half-life for `Cn1ncc2cc(-c3ncc4c(ccn4CC4(C)CCNCC4)c3-c3ccc(C#N)c(F)c3)ccc21` landed at > 1 h

Item: `Cn1ncc2cc(-c3ncc4c(ccn4C[C@@H]4CCNC4)c3-c3ccc(C#N)c(F)c3)ccc21` | half-life: > 1 h

Next up:
Record `Cn1ncc2cc(-c3ncc4c(ccn4CC4CCNCC4)c3-c3ccc(C#N)c(F)c3)ccc21` , field half-life: > 1 h

====

Target: Lysine-specific histone demethylase 1A (Homo sapiens, UniProt O60341)
Assay: Inhibition of human recombinant LSD1 expressed in Escherichia coli using H3K4me2 peptide as substrate incubated for 60 mins by AlphaLISA assay
measure: pIC50
Give bare numbers, as −log10 of the molar value.

Solved entries (count: 5):
// pIC50 lookup, compound = `CC(C)(O)c1ccc(-c2ncc3c(ccn3CC3CCNCC3)c2-c2ccc(C#N)cc2)cc1` , result: 7.68

Field pIC50 (entry `CN1CCOc2cc(-c3ncc4c(ccn4CC4(C)CCNCC4)c3-c3ccc(C#N)c(F)c3)ccc21` ) reads 8.85

Lab book: pIC50 of `Cc1ccc(-c2ncc3c(ccn3CC3CCNCC3)c2-c2ccc(C#N)cc2)cc1` noted as 7.46

`Cc1ccc(-c2ncc3c(ccn3CC3CCNCC3)c2-c2ccc(C#N)cc2)cc1C` yielded pIC50 of 7.61

Summary for this compound, `Cn1ncc2cc(-c3ncc4c(ccn4CC4(C)CCNCC4)c3-c3ccc(C#N)c(F)c3)ccc21` : pIC50 is 8.51

Would you mind giving pIC50 for every compound in the list below?
1. COC(C)(C)c1ccc(-c2ncc3c(ccn3CC3CCNCC3)c2-c2ccc(C#N)cc2)cc1
2. CNC1CCC(Cn2ccc3c(-c4ccc(C#N)c(F)c4)c(-c4ccc5c(cnn5C)c4)ncc32)CC1 (configuration not stated)

Output line:
1. 7.78
2. 6.64

====

Answer each item with its documented IC50.
Test system: NCI-H1417
Test: Antiproliferative activity against human NCI-H1417 cells assessed as cell growth inhibition incubated for 10 days by WST-8 assay
Assay type: functional, cell-based
Settings: NCI-H1417, 240 h
Number plus unit, in that order.

Known results for compounds:
Measured IC50, `Cn1ncc2cc(-c3ncc4c(ccn4CC4(C)CCNCC4)c3-c3ccc(C#N)cc3)ccc21` : 5.7 nM

Consider `CN1CCOc2cc(-c3ncc4c(ccn4CC4(C)CCNCC4)c3-c3ccc(C#N)cc3)ccc21` . Its measured IC50 is 3.7 nM

Field: next compound
The measured IC50 associated with `Cn1ncc2cc(-c3ncc4c(ccn4CC4CCNCC4)c3-c3ccc(C#N)cc3)ccc21` reads 11 nM

====

Assay: Microsomal stability in dog liver microsome assessed as half life measured upto 60 mins by LC-MS/MS analysis
Type: ADME, Canis lupus familiaris
Details: liver microsomes
For each record, write down the corresponding half-life.

Answered cases to consult:
// half-life value for `Cn1ncc2cc(-c3ncc4c(ccn4CC4(C)CCNCC4)c3-c3ccc(C#N)c(F)c3)ccc21` : > 1 h

Reported half-life of `Cn1ncc2cc(-c3ncc4c(ccn4C[C@@H]4CCNC4)c3-c3ccc(C#N)c(F)c3)ccc21` : > 1 h

Continuing:
What the record says about `Cn1ncc2cc(-c3ncc4c(ccn4CC4CCNCC4)c3-c3ccc(C#N)c(F)c3)ccc21` : half-life is > 1 h
